Item-by-item account of Shift pIC50
Test system: M. bovis BCG pMV261-guaB2
Protocol Notes: microbe, parasite or virus in culture
Type: cell-based, Mycobacterium bovis BCG
Property: Shift pIC50

>>> print(df.to_string())
                                   compound     property  reported_measurement
0  CC(C)CCN(c1ccc(C#N)c(Cl)c1)[C@H]1CCNC1 [JAGC_5]  Shift pIC50                  0.94
1  COc1ccc(Cl)c2sc(N(CCN(C)C)C(C)=O)nc12 [JAGC_4]  Shift pIC50                  0.64
2  CCOc1ccc(C(=O)Nc2cc(Cl)c3c(c2)CNCC3)cc1C(C)=O [JAGC_2]  Shift pIC50                  0.84
3  CC1CCC(NC(=O)Nc2ccc3snnc3c2)CC1 (stereo not shown) [JAGC_7]  Shift pIC50                  0.37
4  CC(=O)Nc1ccc(-c2ccc3ncc(N4CCN(C)CC4)nc3c2)cn1 [JAGC_1]  Shift pIC50                  1.05
5  Clc1cc2ccccc2c(N2CCNCC2)n1 [JAGC_6, 3-chloro-1-(piperazin-1-yl)isoquinoline]  Shift pIC50                  1.07
6  COC(=O)c1c(NC(=O)N2CCNCC2)sc2c1CC(C)(C)OC2 [JAGC_3]  Shift pIC50                  0.99
